Each entry below lists one item and its recorded pIC50 value.
# Test system: human lung cancer strain NCI-H441
# assayRemarks: NCI-H441 cell proliferation inhibitory activity (CellTiter-Glo, 4 days)
# Format: cell-based
# testSettings: 50% proliferation inhibitory concentration, four days, read-out: NCl-H441 IC50
Reminder that pIC50 is minus the log10 of a molar concentration.

Before answering, review these 4 worked examples.
CCO[C@@H]1C[C@H]2C(=O)NC3(CCC3)C(=O)N(C)[C@@H](C3CCCC3)C(=O)N(C)[C@@H](C(=O)N(C)C)CC(=O)N(C)[C@@H](CC3CCCC3)C(=O)N[C@@H]([C@@H](C)CC)C(=O)N(C)CC(=O)N(C)[C@H]3C/C=C\CCN(C3=O)[C@@H](Cc3ccc(C(F)(F)F)cc3)C(=O)N(C)CC(=O)N[C@@H](CCc3cc(F)c(C(F)(F)F)c(F)c3)C(=O)N2C1 :: 6.41
CCO[C@@H]1C[C@H]2C(=O)NC3(CCC3)C(=O)N(C)[C@@H](C(CC)CC)C(=O)N(C)[C@H](C(=O)N3CCOCC3)CC(=O)N(C)[C@@H](CC)C(=O)N[C@@H]([C@@H](C)CC)C(=O)N(C)CC(=O)N(C)[C@H]3C/C=C\CCN(C3=O)[C@@H](Cc3ccc(C(F)(F)F)cc3)C(=O)N(C)CC(=O)N[C@@H](CCc3cc(F)c(C(F)(F)F)c(F)c3)C(=O)N2C1 :: 7.23
CCO[C@@H]1C[C@H]2C(=O)NC3(CCC3)C(=O)N(C)[C@@H](C3CCCC3)C(=O)N(C)[C@H](C(=O)N3CCC3)CC(=O)N(C)[C@@H](CC)C(=O)N[C@@H]([C@@H](C)CC)C(=O)N(C)CC(=O)N(C)[C@H]3C/C=C\CCN(C3=O)[C@@H](CC3CCCCC3)C(=O)N(C)CC(=O)N[C@@H](CCc3cc(F)c(C(F)(F)F)c(F)c3)C(=O)N2C1 :: 7.03
CCO[C@@H]1C[C@H]2C(=O)NC3(CCC3)C(=O)N(C)[C@@H](C(CC)CC)C(=O)N(C)[C@H](C(=O)N3CCCC3)CC(=O)N(C)[C@@H](C)C(=O)N[C@@H]([C@@H](C)CC)C(=O)N(C)CC(=O)N(C)[C@H]3C/C=C\CCN(C3=O)[C@@H](CC3CCC(F)(F)CC3)C(=O)N(C)CC(=O)N[C@@H](CCc3cc(F)c(C(F)(F)F)c(F)c3)C(=O)N2C1 :: 7.32

Request: What measured pIC50 is associated with CCO[C@@H]1C[C@H]2C(=O)NC3(CCC3)C(=O)N(C)[C@@H](C(CC)CC)C(=O)N(C)[C@H](C(=O)N(C)C)CC(=O)N(C)[C@@H](C)C(=O)N[C@@H]([C@@H](C)CC)C(=O)N(C)CC(=O)N(C)[C@H]3C/C=C\CCN(C3=O)[C@@H](Cc3ccc(C(F)(F)F)cc3)C(=O)N(C)CC(=O)N[C@@H](CCc3ccc(Cl)c(Cl)c3)C(=O)N2C1 on human lung cancer strain NCI-H441?
Result: 7.03

Request: Same question for CCO[C@@H]1C[C@H]2C(=O)NC3(CCC3)C(=O)N(C)[C@@H](C3CCCC3)C(=O)N(C)[C@H](C(=O)N(C)C)CC(=O)N(C)[C@@H](CC(C)(C)C)C(=O)N[C@@H]([C@@H](C)CC)C(=O)N(C)CC(=O)N(C)[C@H]3C/C=C\CCN(C3=O)[C@@H](CC3CCC(F)(F)CC3)C(=O)N(C)CC(=O)N[C@@H](CCc3cc(F)c(C(F)(F)F)c(F)c3)C(=O)N2C1 please.
Result: 7.48
